Just for reference, patent US8653263B2 is where these values come from.

system_tested: UniProt:O43614
test_method_notes: Human orexin 2 receptor radioligand binding ([3H]-EMPA competition)
measurement_context: HEK293 cells stably expressing human orexin-2 receptor; [3H]-EMPA 5 nM final; apparent Ki=IC50/(1+C/Kd), Kd=2 nM; read-out: OR 2 Ki
pKi: −log10 of the molar value.
measurement_name: pKi

Some entries whose results are on file:
COc1ccc(C(=O)N2CC3CN(c4nccc(C)n4)CC3C2)c(OC)c1 (centres unmarked) = 5.00
COc1cc(N2CC3CN(C(=O)c4c(F)cccc4-n4nccn4)CC3C2)nc(N(C)C)n1 (centres unmarked) = 7.43
COc1cc(OC)nc(N2CC3CN(C(=O)c4ccccc4-n4cccn4)CC3C2)n1 (centres unmarked) = 6.26
COc1ccc(C(=O)N2CC3CN(c4nc5ccccc5s4)CC3C2)c(OC)c1 (centres unmarked) = 6.14

1 = Cc1cc(C)nc(N2CC3CN(C(=O)c4c(F)cccc4F)CC3C2)n1 (centres unmarked)
2 = Cc1cc(C)nc(N2CC3CN(C(=O)c4c(F)cccc4-c4nc(C)no4)CC3C2)n1 (centres unmarked)
3 = O=C(c1ccccc1-n1cccn1)N1CC2CN(c3cnc4ccccc4n3)CC2C1 (centres unmarked)
4 = COc1cccc(C(=O)N2CC3CN(c4nc(C)cc(C)n4)CC3C2)c1-n1ccnn1 (centres unmarked)
Please list these compounds in decreasing order of pKi. I would appreciate it if you listed the labels in the requested order.
2, 3, 1, 4
(2: 7.42, 3: 6.28, 1: 5.64, 4: 5.00)

###

system_tested: human orexin-2 receptor (Homo sapiens (Human), UniProt O43614)
Sequence (O43614 whole entry): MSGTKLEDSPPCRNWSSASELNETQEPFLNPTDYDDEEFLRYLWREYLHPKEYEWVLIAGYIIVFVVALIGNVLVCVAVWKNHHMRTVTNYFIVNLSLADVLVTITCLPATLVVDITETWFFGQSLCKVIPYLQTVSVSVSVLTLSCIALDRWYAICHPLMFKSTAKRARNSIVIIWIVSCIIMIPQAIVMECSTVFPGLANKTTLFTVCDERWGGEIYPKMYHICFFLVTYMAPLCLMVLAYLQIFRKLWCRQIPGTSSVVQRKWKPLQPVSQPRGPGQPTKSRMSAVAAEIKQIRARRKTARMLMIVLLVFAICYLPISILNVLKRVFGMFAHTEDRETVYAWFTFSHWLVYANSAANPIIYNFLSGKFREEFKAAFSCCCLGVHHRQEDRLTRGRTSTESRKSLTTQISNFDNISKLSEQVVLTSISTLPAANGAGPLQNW
test_method_notes: Human orexin 2 receptor radioligand binding ([3H]-EMPA competition)
measurement_context: HEK293 cells stably expressing human orexin-2 receptor; [3H]-EMPA 5 nM final; apparent Ki=IC50/(1+C/Kd), Kd=2 nM; read-out: OR 2 Ki
pKi: −log10 of the molar value.
measurement_name: pKi

O=C(c1ccccc1-n1nccn1)N1CC2CN(c3nccc(-c4ccccc4)n3)CC2C1 (centres unmarked) = 7.12
Cc1ccnc(N2CC3CN(C(=O)c4ccccc4-c4ccccc4)CC3C2)n1 (centres unmarked) = 6.14
O=C(c1cccc(F)c1-n1nccn1)N1CC2CN(c3ncc4cc(F)ccc4n3)CC2C1 (centres unmarked) = 7.41
Cc1cc(C(C)C)nc(N2CC3CN(C(=O)c4cc(C(C)C)ccc4-n4nccn4)CC3C2)n1 (centres unmarked) = 6.54
O=C(c1c(F)cccc1-n1nccn1)N1CC2CN(c3cnc4cc(F)c(F)cc4n3)CC2C1 (centres unmarked) = 7.96
COc1ccc(C(=O)N2CC3CN(c4nc5ccc(OC)cc5s4)CC3C2)c(OC)c1 (centres unmarked) = 6.11
Cc1cc(C)nc(N2CC3CN(C(=O)c4cc(F)ccc4-c4ncccn4)CC3C2)n1 (centres unmarked) = 7.85
Cc1cc(C)nc(N2CC3CN(C(=O)c4cccc(F)c4-c4ncccc4Cl)CC3C2)n1 (centres unmarked) = 6.96

A = Cc1cccc(-c2ccc(F)cc2C(=O)N2CC3CN(c4nc(C)cc(C)n4)CC3C2)n1 (centres unmarked)
B = Cc1ccc(-c2ccccc2C(=O)N2CC3CN(c4nccc(-c5ccccc5)n4)CC3C2)cc1 (centres unmarked)
C = O=C(c1ccccc1-c1cccs1)N1CC2CN(c3nccc(-c4ccco4)n3)CC2C1 (centres unmarked)
D = Cc1cc(N2CC3CN(C(=O)c4cc(F)ccc4-n4nccn4)CC3C2)nc(C)n1 (centres unmarked)
Rank entries according to their pKi, from the largest number down. Return the labels ranked in the requested order, please.
C, A, B, D
(C: 7.10, A: 6.24, B: 5.96, D: 5.30)

a = O=C(c1ccccc1-c1ccc(F)cc1)N1CC2CN(c3cnc4ccccc4n3)CC2C1 (centres unmarked)
b = Cc1ccnc(N2CC3CN(C(=O)c4ccccc4-c4cccs4)CC3C2)c1 (centres unmarked)
Which entry shows the lesser value of pKi here, a or b ? # answer = label of selected item
a

I = Cc1ccc(-c2ccc(F)cc2C(=O)N2CC3CN(c4nc(C)cc(C)n4)CC3C2)nc1 (centres unmarked)
II = COc1cccc(OC)c1C(=O)N1CC2CN(c3nccc(-c4ccccc4)n3)CC2C1 (centres unmarked)
I'm curious, which of these has a smaller pKi number: I or II ? Answer by stating the label of the chosen item.
I

###

system_tested: UniProt:O43614
test_method_notes: Human orexin 2 receptor radioligand binding ([3H]-EMPA competition)
measurement_context: HEK293 cells stably expressing human orexin-2 receptor; [3H]-EMPA 5 nM final; apparent Ki=IC50/(1+C/Kd), Kd=2 nM; read-out: OR 2 Ki
measurement_name: Ki (nM)

Answered cases to consult:
Cc1cc(C)nc(N2CC3CN(C(=O)c4cccc(F)c4-c4ncccc4F)CC3C2)n1 (centres unmarked) [Example 375] = 21
O=C(c1cc(F)ccc1-c1ncccn1)N1CC2CN(c3nccc(C(F)(F)F)n3)CC2C1 (centres unmarked) [Example 148] = 129
CN(C)c1cc(N2CC3CN(C(=O)c4ccccc4-n4nccn4)CC3C2)nc(C(F)(F)F)n1 (centres unmarked) [Example 2] = 33
COc1ccc(C(=O)N2CC3CN(c4nc5ccc(F)cc5s4)CC3C2)c(OC)c1 (centres unmarked) [Example 16] = 300
CCCOc1cccnc1C(=O)N1CC2CN(c3cnc4ccccc4n3)CC2C1 (centres unmarked) [Example 347] = 3100
COc1cccc(N2CC3CN(C(=O)c4ccccc4-c4cccs4)CC3C2)n1 (centres unmarked) [Example 137] = 50
O=C(c1ccccc1-c1ccccc1)N1CC2CN(c3nccc(-c4ccccc4)n3)CC2C1 (centres unmarked) [Example 164] = 289
COc1ccnc(N2CC3CN(C(=O)c4ccccc4-c4ncn[nH]4)CC3C2)n1 (centres unmarked) [Example 154] = 241

I = COc1ccnc(N2CC3CN(C(=O)c4cccc5ccccc45)CC3C2)n1 (centres unmarked) [Example 58]
II = Cc1cc(C)nc(N2CC3CN(C(=O)c4cc(F)ccc4-c4ncccc4F)CC3C2)n1 (centres unmarked) [Example 402]
Field: lower Ki | Options: I / II To answer, give the label that identifies your chosen option.
II
(II: 120 nM, I: 227 nM)

1 = COc1cccc(OC)c1C(=O)N1CC2CN(c3nc4ccc(Cl)cc4s3)CC2C1 (centres unmarked) [Example 189]
2 = O=C(c1ccccc1-n1cccc1)N1CC2CN(c3nccc(-c4ccccc4)n3)CC2C1 (centres unmarked) [Example 24]
Between 1 and 2 , which one shows the smaller Ki number? Use the label to indicate which entry you chose.
2

###

system_tested: human orexin-2 receptor (Homo sapiens (Human))
test_method_notes: Human orexin 2 receptor radioligand binding ([3H]-EMPA competition)
measurement_context: HEK293 cells stably expressing human orexin-2 receptor; [3H]-EMPA 5 nM final; apparent Ki=IC50/(1+C/Kd), Kd=2 nM; read-out: OR 2 Ki
measurement_name: Ki (nM)

Cc1cccc(-c2cc(F)ccc2C(=O)N2CC3CN(c4nc(C)cc(C)n4)CC3C2)n1 (centres unmarked) = 59
O=C(c1ccccc1-c1ccccc1)N1CC2CN(c3cnc4ccccc4n3)CC2C1 (centres unmarked) = 66
COc1ccc(C(=O)N2CC3CN(c4nc(C)cc(C)n4)CC3C2)c(-n2ccnn2)c1 (centres unmarked) = 1800
Cc1cc(C)nc(N2CC3CN(C(=O)c4cccc(F)c4I)CC3C2)n1 (centres unmarked) = 52

1 = CCOc1ccc2ccccc2c1C(=O)N1CC2CN(c3cnc4ccccc4n3)CC2C1 (centres unmarked)
2 = Cc1cc(C(=O)O)nc(N2CC3CN(C(=O)c4c(F)cccc4-n4nccn4)CC3C2)n1 (centres unmarked)
From the items above, decide which of 1 and 2 has the lower Ki reading. API: response body contains the label of the selected item.
1
(1: 45 nM, 2: 9000 nM)

A = Cc1cnc(N2CC3CN(C(=O)c4ccccc4-c4ccccc4)CC3C2)c(C)n1 (centres unmarked)
B = COc1cc(OC)nc(N2CC3CN(C(=O)c4ccccc4-c4cccs4)CC3C2)n1 (centres unmarked)
Between item A and item B , which reported Ki is smaller? Reply briefly: the label of your chosen item.
B
(B: 30 nM, A: 579 nM)

###

system_tested: human orexin-2 receptor (Homo sapiens (Human))
test_method_notes: Human orexin 2 receptor radioligand binding ([3H]-EMPA competition)
measurement_context: HEK293 cells stably expressing human orexin-2 receptor; [3H]-EMPA 5 nM final; apparent Ki=IC50/(1+C/Kd), Kd=2 nM; read-out: OR 2 Ki
pKi: −log10 of the molar value.
measurement_name: pKi

Worked cases, answers included:
Cc1cc(C)nc(N2CC3CN(C(=O)c4ccnn4-c4ccccc4)CC3C2)n1 (stereo not shown) = 6.77
O=C(c1ccccc1-c1cccs1)N1CC2CN(c3nccc(-c4cccs4)n3)CC2C1 (stereo not shown) = 6.74
Cc1ccnc(N2CC3CN(C(=O)c4ccccc4-c4cccs4)CC3C2)n1 (stereo not shown) = 7.33

1 = CN(C)c1nc(N2CC3CN(C(=O)c4c(F)cccc4-c4ncccn4)CC3C2)cc(C(F)(F)F)n1 (stereo not shown)
2 = Cc1cccc(N2CC3CN(C(=O)c4ccccc4-c4ccccc4)CC3C2)n1 (stereo not shown)
Return label of the item with the larger pKi. Candidates: 1 , 2 . Your choice should be expressed through its label.
1

P = COc1cccc(C(=O)N2CC3CN(c4nc(C)cc(C)n4)CC3C2)c1C (stereo not shown)
Q = Cc1cc(C)nc(N2CC3CN(C(=O)c4ccccc4-c4ccccc4)CC3C2)n1 (stereo not shown)
For P and Q , which recorded pKi is lower? Field: selected label. Fill in the label of the entry you choose.
P
